biological target: NAMPT (Homo sapiens (Human)); assay: Biochemical Inhibition Assay (NAMPT enzymatic reaction, NMN by mass spectrometry); details: recombinant His-tagged NAMPT 33 nM, 1 μM NAM, 30 minutes; read-out: Biochem IC50
Sequence (P43490 whole entry): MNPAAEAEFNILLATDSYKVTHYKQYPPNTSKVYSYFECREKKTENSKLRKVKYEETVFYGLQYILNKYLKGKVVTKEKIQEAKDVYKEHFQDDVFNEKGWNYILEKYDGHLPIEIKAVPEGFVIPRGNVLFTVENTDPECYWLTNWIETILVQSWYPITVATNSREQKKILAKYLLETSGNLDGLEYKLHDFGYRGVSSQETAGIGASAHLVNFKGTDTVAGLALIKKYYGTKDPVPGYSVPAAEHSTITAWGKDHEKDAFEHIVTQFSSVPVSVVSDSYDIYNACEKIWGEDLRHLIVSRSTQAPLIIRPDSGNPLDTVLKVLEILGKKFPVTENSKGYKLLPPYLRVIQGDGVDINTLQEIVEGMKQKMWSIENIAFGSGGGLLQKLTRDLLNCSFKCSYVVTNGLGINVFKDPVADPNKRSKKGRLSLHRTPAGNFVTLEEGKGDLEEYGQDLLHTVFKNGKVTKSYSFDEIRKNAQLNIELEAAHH
MEASURED METRIC: log10 IC50 (log10 of the value in nM)
// units: nM (pre-log); metric: IC50; scale: log10

Given Cc1ccc(S(=O)(=O)c2ccc(CNC(=NC#N)Nc3ccncc3)cc2)cc1C , respond with its log10 IC50.
0.34

State its log10 IC50: Cn1cc(S(=O)(=O)c2ccc(CNC(=NC#N)Nc3ccncc3)cc2)cn1
0.63

Please report the measured log10 IC50 for COc1cc(Cl)ccc1S(=O)(=O)c1ccc(CNC(=NC#N)Nc2ccncc2)cc1
0.48

Report measured log10 IC50; entry is CCOc1ccc(S(=O)(=O)c2ccc(CNC(=NC#N)Nc3ccncc3)cc2)cc1
0.75

Tell me log10 IC50 reported for CCN(CC)C(=O)c1ccc(F)c(S(=O)(=O)c2ccc(CNC(=NC#N)Nc3ccncc3)cc2)c1
1.25

Give the reported log10 IC50 for this compound. Cc1ccc(S(=O)(=O)c2ccc(CNC(=NC#N)Nc3ccncc3)cc2)c(C)c1
0.38

Give the reported value of log10 IC50 for this record: Cc1cc(F)ccc1S(=O)(=O)c1ccc(CNC(=NC#N)Nc2ccncc2)cc1
0.73

State its log10 IC50 for this compound: COc1cc(Cl)cc(S(=O)(=O)c2ccc(CNC(=NC#N)Nc3ccncc3)cc2)c1
0.66

# return recorded log10 IC50 for input N#CN=C(NCc1ccc(S(=O)(=O)c2cccc(C(=O)N3CCOCC3)c2)cc1)Nc1ccncc1
0.23

Output measured log10 IC50 for this item: COc1ccc(S(=O)(=O)c2ccc(CNC(=NC#N)Nc3ccncc3)cc2)cc1Cl
0.41

Report log10 IC50, nothing else, for this compound: N#CN=C(NCc1ccc(S(=O)(=O)c2ccccc2CN2CCOCC2)cc1)Nc1ccncc1
1.07

Answer with the recorded log10 IC50 of CCCn1cc(S(=O)(=O)c2ccc(CNC(=NC#N)Nc3ccncc3)cc2)cn1 only.
0.61

Item CS(=O)(=O)c1ccc(S(=O)(=O)c2ccc(CNC(=NC#N)Nc3ccncc3)cc2)cc1 : provide log10 IC50
0.65

Look up and state reported log10 IC50 for CC(C)Oc1cccc(S(=O)(=O)c2ccc(CNC(=NC#N)Nc3ccncc3)cc2)c1
0.51

Answer with the recorded log10 IC50 for the compound listed here: N#CN=C(NCc1ccc(S(=O)(=O)c2cc(F)cc(F)c2)cc1)Nc1ccncc1
0.00

Please give measured log10 IC50 of the following entry: N#CN=C(NCc1ccc(S(=O)(=O)c2ccc(OC(F)(F)F)cc2)cc1)Nc1ccncc1
0.54

Look up log10 IC50 of N#CN=C(NCc1ccc(S(=O)(=O)c2ccnc(N3CCOCC3)c2Cl)cc1)Nc1ccncc1 and report it.
0.53

For the compound N#CN=C(NCc1ccc(S(=O)(=O)c2cc(F)cc(Cl)c2)cc1)Nc1ccncc1 , report log10 IC50.
0.71

Supply measured log10 IC50 of N#CN=C(NCc1ccc(S(=O)(=O)c2cccc(C(=O)NC3CC3)c2)cc1)Nc1ccncc1 in your reply.
0.34

----------
Provide the reported IC50 of each item.
molecular target: NAMPT (Homo sapiens (Human)); assay: Biochemical Inhibition Assay (NAMPT enzymatic reaction, NMN by mass spectrometry); conditions: recombinant His-tagged NAMPT 33 nM, 1 μM NAM, 30 minutes; read-out: Biochem IC50
// units = nM; emit number, no label

Consider the compound N#CN=C(NCc1ccc(S(=O)(=O)c2ccc(Cl)cc2)cc1)Nc1ccncc1 . State its measured IC50.
3.6

Annotate the compound N#C/N=C(\NCc1ccc(S(=O)(=O)c2ccccc2)cc1)NCc1ccn2ccnc2c1 with its measured IC50.
266

Read off the recorded IC50 for Cc1cc(S(=O)(=O)c2ccc(CNC(=NC#N)Nc3ccncc3)cc2)ccc1F
3.1

Value source: patent US9676721B2
